- TARGET SYSTEM: human estrogen receptor α (Homo sapiens)
- Construct: purchased Panvera
- Sequence (P03372 whole entry): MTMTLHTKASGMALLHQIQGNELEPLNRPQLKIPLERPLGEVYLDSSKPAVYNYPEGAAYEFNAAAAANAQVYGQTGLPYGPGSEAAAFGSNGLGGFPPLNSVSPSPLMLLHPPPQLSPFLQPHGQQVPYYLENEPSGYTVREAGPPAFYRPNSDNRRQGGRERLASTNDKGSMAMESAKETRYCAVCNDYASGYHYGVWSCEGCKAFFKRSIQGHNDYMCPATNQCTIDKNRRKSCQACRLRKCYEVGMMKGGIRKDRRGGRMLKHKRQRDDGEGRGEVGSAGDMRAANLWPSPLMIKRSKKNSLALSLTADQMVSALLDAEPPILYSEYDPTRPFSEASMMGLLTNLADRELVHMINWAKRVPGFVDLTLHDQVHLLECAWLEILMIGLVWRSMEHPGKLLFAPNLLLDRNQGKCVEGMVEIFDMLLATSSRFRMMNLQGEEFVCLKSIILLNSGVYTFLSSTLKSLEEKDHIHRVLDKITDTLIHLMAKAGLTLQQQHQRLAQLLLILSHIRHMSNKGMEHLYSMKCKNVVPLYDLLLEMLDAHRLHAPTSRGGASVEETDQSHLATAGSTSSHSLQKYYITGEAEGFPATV
- ASSAY PROCEDURE: Estrogen Receptor α Flash Plate Assay (binding of radiolabeled estrogen)
- CONDITIONS USED: flash plate binding, 0.5 nM radiolabeled estrogen; number in brackets = No. of determinations; NA = no detected activity at test concentration; read-out: Estrogen Receptor α in μM (No.)
OBSERVATION TYPE: log10(IC50) (log10 of the value in µM)
A difference of one corresponds to tenfold IC50; all values are log10 with IC50 in µM.

Solved cases below.
COC(=O)COc1ccc(C2Oc3cc(O)ccc3C3=C2c2ccc(O)cc2OCC3)cc1 (racemic) ... -2.05
COc1ccc2c(c1)O[C@@H](c1ccc(OCCN3CCCCC3)cc1)C1=C2COc2cc(O)ccc21 (single isomer, unassigned) ... -1.62
COc1ccc2c(c1)OCCC1=C2C(c2ccc(OCCN3CCCCC3)cc2)Oc2cc(O)ccc21 (single isomer, unassigned) [Compound 196] ... -1.26
Oc1ccc2c(c1)OCCC1=C2C(c2ccc(OCCN3CCCCCC3)cc2)Oc2cc(F)ccc21 (single isomer, unassigned) ... -1.40
CC(C)(C)C(=O)Oc1ccc2c(c1)OC(c1ccc(OCCN3CCCCC3)cc1)C1=C2C(O)Oc2cc(OC(=O)C(C)(C)C)ccc21 (stereo not shown) ... -0.85
CN(C)CCOc1ccc(C2Oc3cc(O)ccc3C3=C2c2ccc(O)cc2OC3)cc1 (stereo not shown) ... -1.82
Oc1ccc2c(c1)O[C@H](c1ccc(OCCN3CCCCC3)cc1)C1=C2COc2cc(O)ccc21 (stereo in doubt) ... -2.13
CC(C)(C)C(=O)Oc1ccc2c(c1)OC(c1ccc(OCCN3CCCCC3)cc1)C1=C2COc2cc(OC(=O)C(C)(C)C)ccc21 (single isomer, unassigned) [Compound 25] ... 0.08

Quote log10(IC50) reported for COc1ccc2c(c1)OC(c1ccc(OCCN3CCCCC3)cc1)C1=C2CCOc2cc(O)ccc21 (single isomer, unassigned) please.
-1.94

Return the recorded log10(IC50) value; entry: Oc1ccc2c(c1)OC(c1ccc(OCCN3CCCCCC3)cc1)C1=C2CCOc2ccccc21 (single isomer, unassigned) [Compound 154]
-2.38

Item CC(C)N(CCOc1ccc(C2Oc3cc(O)ccc3C3=C2c2ccc(O)cc2OCC3)cc1)C(C)C (single isomer, unassigned) [Compound 168] : provide log10(IC50)
-2.38

Read the entry COc1ccc2c(c1)OCC1=C2[C@H](c2ccc(OCCN3CCCCC3)cc2)Oc2cc(O)ccc21 (single isomer, unassigned) and write its reported log10(IC50).
-2.96

Answer with the recorded log10(IC50) of Oc1ccc2c(c1)OCCC1=C2C(c2ccc(OCCN3CCCCCC3)cc2)Oc2ccccc21 (single isomer, unassigned) [Compound 152] only.
-2.07

Supply measured log10(IC50) of Oc1ccc2c(c1)OCCC1=C2C(c2ccc(OCCN3CCCCCC3)cc2)Oc2ccccc21 (single isomer, unassigned) [Compound 153] in your reply.
-2.18

Name the recorded log10(IC50) of the molecule listed here: CC(C)(C)C(=O)Oc1ccc2c(c1)OCC1=C2C(c2ccc(OCCN3CCCCC3)cc2)Oc2ccccc21 (single isomer, unassigned) [Compound 172]
-0.59
